Origin of measurements: patent US8877946B2

# System: HuH7 cells
# Assay Remarks: MTT antiproliferative (growth inhibition) assay on HuH7 cells
# Format: cell-based, human
# Experimental Conditions: Homo sapiens, Huh-7, MTT, 72 h incubation, mean and SD of 3 or more independent determinations (Tables 1-8), read-out: IC 50
Quick reference for log10 of IC50 among some molecules
Recorded Metric: log10 of IC50 (log10 of the value in µM)

- Molecule: "CCCNS(=O)(=O)c1cccc(C=C2C(=O)Nc3cc(Cl)ccc32)c1"
  Obs Value: -0.44
- Molecule: "CNS(=O)(=O)c1cccc(/C=C2/C(=O)Nc3cc(F)ccc32)c1"
  Obs Value: -0.32
- Molecule: "O=C1Nc2ccc(Cl)cc2/C1=C\\c1ccc(F)cc1"
  Obs Value: 1.10
- Molecule: "CNS(=O)(=O)c1cccc(/C=C2\\C(=O)Nc3ccc(F)c(F)c32)c1"
  Obs Value: 1.20
- Molecule: "O=C1Nc2ccc(F)cc2/C1=C\\c1ccc(F)cc1"
  Obs Value: 1.12
- Molecule: "COc1ccc2c(c1)NC(=O)/C2=C/c1cccc(C(F)(F)F)c1 [Compound 5-6, reference compound]"
  Obs Value: 0.08
- Molecule: "CS(=O)(=O)c1cccc(/C=C2/C(=O)Nc3cc(Cl)ccc32)c1"
  Obs Value: 1.03
- Molecule: "O=C1Nc2ccc(F)c(F)c2/C1=C/c1cccc(F)c1"
  Obs Value: 1.20
- Molecule: "O=C1Nc2cc(Cl)ccc2/C1=C\\c1ccccc1"
  Obs Value: 1.24
- Molecule: "N#Cc1cccc(/C=C2/C(=O)Nc3ccc(F)cc32)c1"
  Obs Value: 0.87
- Molecule: "O=C1Nc2ccc(F)cc2/C1=C\\c1cccc(C(F)(F)F)c1 [Compound 4-10, reference compound]"
  Obs Value: 0.61
- Molecule: "CCNS(=O)(=O)c1cccc(/C=C2/C(=O)Nc3cc(F)ccc32)c1"
  Obs Value: -0.41
- Molecule: "O=C1Nc2cc(Cl)ccc2/C1=C\\c1ccc(F)cc1"
  Obs Value: 1.11
- Molecule: "O=C1Nc2cc(F)c(F)cc2/C1=C\\c1cccc(F)c1"
  Obs Value: 1.28
- Molecule: "CC(C)NS(=O)(=O)c1cccc(/C=C2/C(=O)Nc3cc(F)ccc32)c1"
  Obs Value: 0.36
- Molecule: "CS(=O)(=O)c1cccc(/C=C2/C(=O)Nc3ccc(Cl)cc32)c1"
  Obs Value: 0.81
- Molecule: "O=C1Nc2ccc(F)cc2/C1=C\\c1ccccc1"
  Obs Value: 1.33
- Molecule: "O=C1Nc2cc(Cl)ccc2C1=Cc1ccc(OC(F)(F)F)cc1"
  Obs Value: 1.00
- Molecule: "O=C1Nc2ccc(F)c(F)c2/C1=C/c1cccc(C(F)(F)F)c1"
  Obs Value: -0.27
- Molecule: "CN1C(=O)/C(=C/c2cccc(C(F)(F)F)c2)c2ccccc21"
  Obs Value: 0.83
- Molecule: "COc1ccc2c(c1)NC(=O)/C2=C/c1ccccc1F"
  Obs Value: -0.31
- Molecule: "COc1ccc2c(c1)NC(=O)/C2=C/c1cccc(F)c1"
  Obs Value: -0.15
- Molecule: "N#Cc1cccc(/C=C2/C(=O)Nc3ccc(Cl)cc32)c1"
  Obs Value: 1.02
- Molecule: "O=C1Nc2ccc(F)cc2/C1=C\\c1cccc(OC(F)(F)F)c1"
  Obs Value: 1.36
- Molecule: "CS(=O)(=O)c1cccc(/C=C2/C(=O)Nc3ccc(F)cc32)c1"
  Obs Value: 0.72
- Molecule: "CC(C)NS(=O)(=O)c1cccc(C=C2C(=O)Nc3cc(Cl)ccc32)c1"
  Obs Value: 0.29
- Molecule: "CNS(=O)(=O)c1cccc(/C=C2/C(=O)Nc3ccc(F)cc32)c1"
  Obs Value: 0.07
- Molecule: "CNS(=O)(=O)c1cccc(/C=C2/C(=O)Nc3cc(OC)ccc32)c1"
  Obs Value: -0.77
- Molecule: "O=C1Nc2cc(F)ccc2/C1=C\\c1cccc(F)c1"
  Obs Value: 0.38
- Molecule: "NS(=O)(=O)c1cccc(/C=C2/C(=O)Nc3cc(Cl)ccc32)c1"
  Obs Value: 0.53
- Molecule: "O=C1Nc2ccc(Cl)cc2/C1=C\\c1cccc(F)c1"
  Obs Value: 1.18
- Molecule: "O=C1Nc2cc(F)ccc2/C1=C\\c1ccccc1F"
  Obs Value: -0.04
